Target Under Test: RBPMS2 (UniProt Q6ZRY4 1-209)
Sequence (Q6ZRY4 whole entry): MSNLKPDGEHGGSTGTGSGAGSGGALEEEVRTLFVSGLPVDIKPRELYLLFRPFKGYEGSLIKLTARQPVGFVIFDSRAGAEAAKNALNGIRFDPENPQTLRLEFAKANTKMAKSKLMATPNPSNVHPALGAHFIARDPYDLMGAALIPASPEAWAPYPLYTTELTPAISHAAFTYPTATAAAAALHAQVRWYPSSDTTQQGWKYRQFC
Experimental Protocol: EMSA
Metric: binding result

>  <Binder>
ACACACACACACACACAC (ssRNA) [(AC)9]

>  <Metric>
binding result

>  <Endpoint Result>
binds

$$$$
>  <Binder>
CACCACCACCACCACCAC (ssRNA) [(CAC)6]

>  <Metric>
binding result

>  <Endpoint Result>
binds

$$$$
>  <Binder>
CUCUCUCUCUCUCUCUCU (ssRNA) [(CU)9]

>  <Metric>
binding result

>  <Endpoint Result>
no binding

$$$$
>  <Binder>
CAUCAUCAUCAUCAUCAU (ssRNA) [(CAU)6]

>  <Metric>
binding result

>  <Endpoint Result>
no binding

$$$$

Reference for the values: paper PMC4114688
